Measured melting point, listed per entry for reference.

Molecule	Reported result
C=C[C@]1(C)C[C@@H](OC(=O)CSc2ccc(Nc3nc(Cl)nc4c3cnn4-c3cccc(C)c3)cc2)[C@]2(C)[C@H](C)CC[C@]3(CCC(=O)[C@H]32)[C@@H](C)[C@@H]1O [Compound 12c]	95 to 97 °C
C=C[C@]1(C)C[C@@H](OC(=O)CSc2ccc(Nc3nc(Cl)nc4c3cnn4-c3ccc(F)c(F)c3)cc2)[C@]2(C)[C@H](C)CC[C@]3(CCC(=O)[C@H]32)[C@@H](C)[C@@H]1O [Compound 22c]	109 to 113 °C
C=C[C@]1(C)C[C@@H](OC(=O)CNc2nc(Cl)nc3c2cnn3-c2cc(Cl)cc(Cl)c2)[C@]2(C)[C@H](C)CC[C@]3(CCC(=O)[C@H]32)[C@@H](C)[C@@H]1O [Compound 26b]	151 to 156 °C
C=C[C@]1(C)C[C@@H](OC(=O)CNc2nc(Cl)nc3c2cnn3-c2ccc(F)cc2)[C@]2(C)[C@H](C)CC[C@]3(CCC(=O)[C@H]32)[C@@H](C)[C@@H]1O [Compound 19b]	112 to 115 °C
C=C[C@]1(C)C[C@@H](OC(=O)CNc2nc(Cl)nc3c2cnn3-c2ccc(C)c(C)c2)[C@]2(C)[C@H](C)CC[C@]3(CCC(=O)[C@H]32)[C@@H](C)[C@@H]1O [Compound 14b]	99 to 103 °C

Query: Entry under review: C=C[C@]1(C)C[C@@H](OC(=O)CNc2nc(Cl)nc3c2cnn3-c2cccc(OC)c2)[C@]2(C)[C@H](C)CC[C@]3(CCC(=O)[C@H]32)[C@@H](C)[C@@H]1O [Compound 17b] . Reported melting point?
Result: 99 to 104 °C

Query: Entry under review: C=C[C@]1(C)C[C@@H](OC(=O)CSc2ccc(Nc3nc(Cl)nc4c3cnn4-c3ccc(Cl)cc3)cc2)[C@]2(C)[C@H](C)CC[C@]3(CCC(=O)[C@H]32)[C@@H](C)[C@@H]1O [Compound 25c] . Reported melting point?
Result: 124 to 129 °C

Query: Entry under review: C=C[C@]1(C)C[C@@H](OC(=O)CSc2ccc(Nc3nc(Cl)nc4c3cnn4-c3ccc(CC)cc3)cc2)[C@]2(C)[C@H](C)CC[C@]3(CCC(=O)[C@H]32)[C@@H](C)[C@@H]1O [Compound 16c] . Reported melting point?
Result: 97 to 99 °C

---

Measured MBC, listed per entry for reference.
Tested on: S. aureus AD3
Run description: MIC/MBC by broth dilution (CLSI)
Type: cell-based
Condition info: Staphylococcus aureus; S. aureus AD3 (clinical strain)
Answer in µg/mL, number only, no unit symbol.

Compound	Target under test	MBC, µg/mL
C=C[C@]1(C)C[C@@H](OC(=O)CSc2ccc(Nc3nc(Cl)nc4c3cnn4-c3cccc(C)c3)cc2)[C@]2(C)[C@H](C)CC[C@]3(CCC(=O)[C@H]32)[C@@H](C)[C@@H]1O [Compound 12c]	S. aureus AD3	0.25
C=C[C@]1(C)C[C@@H](OC(=O)CSc2ccc(Nc3nc(Cl)nc4c3cnn4-c3ccc(Cl)cc3)cc2)[C@]2(C)[C@H](C)CC[C@]3(CCC(=O)[C@H]32)[C@@H](C)[C@@H]1O [Compound 25c]	S. aureus AD3	32
C=C[C@]1(C)C[C@@H](OC(=O)CSc2ccc(Nc3nc(Cl)nc4c3cnn4-c3ccc(F)cc3)cc2)[C@]2(C)[C@H](C)CC[C@]3(CCC(=O)[C@H]32)[C@@H](C)[C@@H]1O [Compound 19c]	S. aureus AD3	1
C=C[C@]1(C)C[C@@H](OC(=O)CSc2ccc(Nc3nc(Cl)nc4c3cnn4-c3ccc(OC(F)(F)F)cc3)cc2)[C@]2(C)[C@H](C)CC[C@]3(CCC(=O)[C@H]32)[C@@H](C)[C@@H]1O [Compound 23c]	S. aureus AD3	1
C=C[C@]1(C)C[C@@H](OC(=O)CSCCN(CC)CC)[C@]2(C)[C@H](C)CC[C@]3(CCC(=O)[C@H]32)[C@@H](C)[C@@H]1O [Tiamulin, tiamulin, reference compound]	S. aureus AD3	2
C=C[C@]1(C)C[C@@H](OC(=O)CSc2ccc(Nc3nc(Cl)nc4c3cnn4-c3ccc(F)c(F)c3)cc2)[C@]2(C)[C@H](C)CC[C@]3(CCC(=O)[C@H]32)[C@@H](C)[C@@H]1O [Compound 22c]	S. aureus AD3	0.25

In the following, a different compound is considered.
Query: Hello, I am looking for reported MBC with S. aureus AD3 for C=C[C@]1(C)C[C@@H](OC(=O)CNc2nc(Cl)nc3c2cnn3-c2cccc(C)c2)[C@]2(C)[C@H](C)CC[C@]3(CCC(=O)[C@H]32)[C@@H](C)[C@@H]1O [Compound 12b] . Could you help?
Result: 16

Where do the numbers come from? From paper PMC10180054.
